B1: HEEH_KT_rd6_0790 (parent)
chain: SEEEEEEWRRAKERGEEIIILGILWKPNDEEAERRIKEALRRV

variants of: B1; test: folding stability dG (cDNA display proteolysis); higher = more stable; conditions: PBS, room temperature
Can you tell me folding stability dG for the items I'm about to list?
Numbers only, in kcal/mol.

Field: example entries. Status: answers known.
VARIANT_DESCRIPTION: E2Q
ENDPOINT_LABEL: folding stability dG
NUMERIC_VALUE: 2.29
--
VARIANT_DESCRIPTION: E6N
ENDPOINT_LABEL: folding stability dG
NUMERIC_VALUE: 1.85
--
VARIANT_DESCRIPTION: E6Y
ENDPOINT_LABEL: folding stability dG
NUMERIC_VALUE: 2.08
--
VARIANT_DESCRIPTION: I18Y
ENDPOINT_LABEL: folding stability dG
NUMERIC_VALUE: 1.86
--
VARIANT_DESCRIPTION: W8R
ENDPOINT_LABEL: folding stability dG
NUMERIC_VALUE: 0.881
--
VARIANT_DESCRIPTION: E33Y
ENDPOINT_LABEL: folding stability dG
NUMERIC_VALUE: 1.71
--
VARIANT_DESCRIPTION: E7S
ENDPOINT_LABEL: folding stability dG
NUMERIC_VALUE: 2.31
--
VARIANT_DESCRIPTION: K12Y
ENDPOINT_LABEL: folding stability dG
NUMERIC_VALUE: 2.2

Provide folding stability dG values for the following items, in order.
1. I23E
2. L40P
3. I18P
4. L40V
5. I23L
6. I19W
7. E31I
8. E4L

Result ::
[0.981, 0.583, 0.472, 1.25, 1.46, 2.53, 1.8, 3.4]
